Data provenance is paper PMC9321647.

# Assay summary: Spectrophotometric pH-metric titrations of Ga^3+:ligand systems (stability constants, pGa, speciation)
# Type: physicochemical
# Protocol conditions: 298 K, HypSpec
Parameter: log β 112 overall stability constant (Ga^3+)

State its log β 112 overall stability constant (Ga^3+) for this compound: `O=C(O)CCC(C(=O)/C=C/c1ccc(O)cc1)C(=O)/C=C/c1ccc(O)cc1` 27.79 (5)

Name the recorded log β 112 overall stability constant (Ga^3+) of the compound listed here: `COc1cc(/C=C/C(=O)C(CCC(=O)O)C(=O)/C=C/c2ccc(O)c(OC)c2)ccc1O` 28.29 (5)

Please give the documented log β 112 overall stability constant (Ga^3+) of `COc1cc(/C=C/C(=O)C(CCCN2C(=O)c3ccccc3C2=O)C(=O)/C=C/c2ccc(O)c(OC)c2)ccc1O` 28.48 (5)

Read off the recorded log β 112 overall stability constant (Ga^3+) for `O=C(/C=C/c1ccc(O)cc1)C(CCCN1C(=O)c2ccccc2C1=O)C(=O)/C=C/c1ccc(O)cc1` 28.28 (3)
